System: Mus musculus
experiment.notes: Neurotoxicity in albino mouse at 300 mg/kg, ip after 4 hrs by rotorod test
Assay type: toxicity, organism-based
Design: dose 300 mg/kg, route intraperitoneal
measurement.setup: in vivo
parameter.measured: Activity

Please review the following examples before continuing.
- item.smiles: "Cc1nc2ccccc2c(=O)n1C(=S)NC(=O)Nc1nc2ccc(Br)cc2s1"
  parameter.measured: "Activity"
  result: "Non-toxic"
- item.smiles: "Cc1nc2cc(F)ccc2c(=O)n1C(=S)NC(=O)Nc1nc2c(Cl)cccc2s1"
  parameter.measured: "Activity"
  result: "Non-toxic"
- item.smiles: "Cc1nc2cc(F)ccc2c(=O)n1C(=S)NC(=O)Nc1nc2ccc(Br)cc2s1"
  parameter.measured: "Activity"
  result: "Non-toxic"
- item.smiles: "Cc1nc2ccccc2c(=O)n1C(=S)NC(=O)Nc1nc2c(Cl)cccc2s1"
  parameter.measured: "Activity"
  result: "Non-toxic"

Ask: Under Mus musculus: Activity value of "Cc1nc2cc(F)ccc2c(=O)n1C(=S)NC(=O)Nc1nc2c(Br)cccc2s1" ?
Result: Non-toxic

----------
experiment.notes: Protective index, ratio of TD50 for neurotoxicity to ED50 for protection against pentylenetetrazole-induced seizure in albino rat after 2 hrs
Assay type: toxicity, organism-based
measurement.setup: in vivo, read-out: Ratio TD50/ED50
parameter.measured: selectivity ratio at 2 h

Ask: # lookup: selectivity ratio at 2 h of CCC1(C)CC(=O)NC1=O (stereo unspecified) [ETHOSUXIMIDE]
Result: > 3

----------
experiment.notes: Protective index, ratio of TD50 for neurotoxicity to ED50 for protection against maximal electroshock-induced seizure in albino rat after 4 hrs
Assay type: toxicity, organism-based
measurement.setup: in vivo, read-out: Ratio TD50/ED50
parameter.measured: selectivity ratio at 4 h

Ask: Given the entry "Cc1nc2ccccc2c(=O)n1C(=S)NC(=O)Nc1nc2ccc(Cl)cc2s1" , report its measured selectivity ratio at 4 h.
Result: > 17

----------
experiment.notes: in vivo
measurement.setup: albino, rat
Description: Protective index, ratio of TD50 for neurotoxicity to ED50 for protection against maximal electroshock-induced seizure in albino rat after 2 hrs
parameter.measured: selectivity ratio at 2 h

Ask: Requested read-out: selectivity ratio at 2 h. Entry: O=C1NC(=O)C(c2ccccc2)(c2ccccc2)N1 [PHENYTOIN]
Result: > 22

----------
experiment.notes: Neurotoxicity in po dosed albino rat after 2 hrs
Type: toxicity, organism-based
measurement.setup: in vivo
# TD50 at 2 h per record follows

- molecule: "CCC1(C)CC(=O)NC1=O (configuration not stated) [ETHOSUXIMIDE]"
  parameter.measured: "TD50 at 2 h"
  result: "> 3540 µmol/kg"

// next entry
Ask: What measured TD50 at 2 h goes with O=C1NC(=O)C(c2ccccc2)(c2ccccc2)N1 [PHENYTOIN] ?
Result: > 1980 µmol/kg

----------
Consider the following compounds and their measured MTC readings.
System: Mus musculus
experiment.notes: Neurotoxicity in ip dosed albino mouse after 0.5 hrs by rotorod test
Type: toxicity, organism-based
measurement.setup: in vivo
A number alone suffices; assume mg/kg.

Recorded MTC, per entry:
- compound: "Cc1nc2cc(Cl)ccc2c(=O)n1C(=S)NC(=O)Nc1nc2ccc(Cl)cc2s1"
  numeric.result: 300
- compound: "Cc1nc2ccccc2c(=O)n1C(=S)NC(=O)Nc1nc2cc(Cl)ccc2s1"
  numeric.result: 100
- compound: "Cc1nc2cc(Cl)ccc2c(=O)n1C(=S)NC(=O)Nc1nc2ccc(OC(F)(F)F)cc2s1"
  numeric.result: 300
- compound: "Cc1nc2ccccc2c(=O)n1C(=S)NC(=O)Nc1nc2c(Cl)cccc2s1"
  numeric.result: 300
- compound: "Cc1nc2cc(F)ccc2c(=O)n1C(=S)NC(=O)Nc1nc2cc(Cl)ccc2s1"
  numeric.result: 100

Ask: Report MTC for "Cc1nc2ccccc2c(=O)n1C(=S)NC(=O)Nc1nc2ccc(Br)cc2s1" please.
Result: 300

Ask: And the next one, NC(=O)N1c2ccccc2C=Cc2ccccc21 [CARBAMAZEPINE] ?
Result: 100

Ask: Please answer likewise for "Cc1nc2cc(F)ccc2c(=O)n1C(=S)NC(=O)Nc1nc2c(Cl)cccc2s1"
Result: 300

Ask: Please give the result for "Cc1nc2ccccc2c(=O)n1C(=S)NC(=O)Nc1nc2ccc(OC(F)(F)F)cc2s1" too.
Result: 300

Ask: Further, for "O=C1NC(=O)C(c2ccccc2)(c2ccccc2)N1" ?
Result: 100

----------
experiment.notes: Protective index, ratio of TD50 for neurotoxicity to ED50 for protection against maximal electroshock-induced seizure in albino rat after 0.5 hrs
Format: toxicity, organism-based
measurement.setup: in vivo, read-out: Ratio TD50/ED50
parameter.measured: selectivity ratio at 0.5 h

Ask: Look at this compound and give its reported selectivity ratio at 0.5 h. "Cc1nc2ccccc2c(=O)n1C(=S)NC(=O)Nc1nc2ccc(OC(F)(F)F)cc2s1"
Result: > 26

----------
experiment.notes: Protective index, ratio of TD50 for neurotoxicity to ED50 for protection against pentylenetetrazole-induced seizure in albino rat after 4 hrs
Type: toxicity, organism-based
measurement.setup: in vivo, read-out: Ratio TD50/ED50
parameter.measured: selectivity ratio at 4 h

Ask: # get_value(readout='selectivity ratio at 4 h', item= "Cc1nc2ccccc2c(=O)n1C(=S)NC(=O)Nc1nc2ccc(Cl)cc2s1" )
Result: > 3.4

----------
experiment.notes: Neurotoxicity in po dosed albino rat after 1 hr
Format: toxicity, organism-based
measurement.setup: in vivo
parameter.measured: TD50 at 1 h
Note: a bare number is incomplete; add the unit.

Ask: Need TD50 at 1 h of NC(=O)N1c2ccccc2C=Cc2ccccc21 [CARBAMAZEPINE] , thanks.
Result: 1530 µmol/kg

----------
MTC overview
System: Mus musculus
experiment.notes: Neurotoxicity in ip dosed albino mouse after 0.5 hrs by rotorod test
Assay type: toxicity, organism-based
measurement.setup: in vivo
Report the figure in mg/kg without appending any unit label.

- item.smiles: "Cc1nc2ccccc2c(=O)n1C(=S)NC(=O)Nc1nc2ccc(Cl)cc2s1"
  units.symbol: "mg/kg"
  MTC: 300
- item.smiles: "Cc1nc2cc(F)ccc2c(=O)n1C(=S)NC(=O)Nc1nc2ccc(Br)cc2s1"
  units.symbol: "mg/kg"
  MTC: 300
- item.smiles: "Cc1nc2cc(F)ccc2c(=O)n1C(=S)NC(=O)Nc1nc2c(Br)cccc2s1"
  units.symbol: "mg/kg"
  MTC: 300
- item.smiles: "Cc1ccc2nc(NC(=O)NC(=S)n3c(C)nc4ccccc4c3=O)sc2c1"
  units.symbol: "mg/kg"
  MTC: 300
- item.smiles: "Cc1nc2ccccc2c(=O)n1C(=S)NC(=O)Nc1nc2ccc(F)cc2s1"
  units.symbol: "mg/kg"
  MTC: 300

Ask: Recorded MTC for "Cc1nc2cc(Cl)ccc2c(=O)n1C(=S)NC(=O)Nc1nc2ccc(Br)cc2s1" with Mus musculus, please?
Result: 300

Ask: Same question, "Cc1nc2cc(F)ccc2c(=O)n1C(=S)NC(=O)Nc1nc2ccc(OC(F)(F)F)cc2s1" this time
Result: 100

Ask: What about this compound? "Cc1nc2cc(F)ccc2c(=O)n1C(=S)NC(=O)Nc1nc2ccc(Cl)cc2s1"
Result: 100
